Just for reference, ChEMBL document CHEMBL4476878 is where these values come from.

Test system: Geobacillus stearothermophilus
Assay: Inhibition of Bacillus stearothermophilus glucokinase
Active and inactive are the calls of the source. No cut-off for these calls is given here.
OBSERVED PROPERTY: inhibition

Before answering, review these 4 worked examples.
# COMPOUND, RECORDED VALUE
rows = [
    ("COC(=O)CSC1=C(C#N)C(=O)NC(c2ccccc2O)S1 (stereo not given)", "Active"),
    ("CCSC1=C(C#N)C(=O)NC(/C=C/c2ccccc2)S1 (stereo not given)", "Active"),
    ("COC1=C(N)C(=O)c2nc(-c3nc(C(=O)O)c(C)c(-c4ccc(OC)c(OC)c4O)c3N)ccc2C1=O", "Active"),
    ("Cc1c(N=c2c(=O)c3ccccc3c2=O)c(=O)n(-c2ccccc2)n1C", "Active"),
]

# inhibition (compound: CC1=NN(c2cccc(C(=O)O)c2)C(=O)/C1=C/c1ccc(-c2cccc(Cl)c2C)o1 ) is Active

Notebook: COc1cc(/C=C2/SC(=S)NC2=O)ccc1OC(=O)c1cccc(C)c1 , inhibition read as Active

# inhibition of O=C1OC(c2ccccc2)OC(=O)C1=C/C=C/c1ccccc1 (stereo not given) = Active

Please fill in: inhibition reported for Oc1c(Cl)cc(Cl)cc1Sc1cc(Cl)cc(Cl)c1O = Active

Summary for this compound, O=C(NC1(O)C(=O)c2ccccc2C1=O)c1cnn(-c2ccccc2)c1C(F)(F)F : inhibition is Active

Looking up N#Cc1c(-c2ccc(Cl)cc2)nc(SCc2ccccc2)[nH]c1=S , I see its inhibition listed as Active

Query Oc1c(Cl)cc(Cl)c(Cl)c1Cc1c(O)c(Cl)cc(Cl)c1Cl yields inhibition of Active

The recorded inhibition for entry c1ccc(-c2cnc3nonc3n2)cc1 equals Active

So for Cc1ccc(CSc2nc(C(=O)O)ccc2C#N)cc1 , the logged inhibition turned out to be Active

* * *

Test system: Geobacillus stearothermophilus
Assay: Inhibition of Bacillus stearothermophilus glucokinase
Calls of active or inactive are those of the source. The calls are words filed in the database; no cut-off is given here.
OBSERVED PROPERTY: inhibition

# MOLECULE, inhibition
records = [
    ("N#CC1=C(SCc2ccccc2)SC(c2ccc(C(=O)O)cc2)NC1=O (centres undefined)", "Active"),
    ("CC(C)(C)c1cc(/C=C2/SC(=S)NC2=O)cc(C(C)(C)C)c1O", "Active"),
    ("N#CC1=C(SCc2ccccc2)SC(c2ccccc2O)NC1=O (centres undefined)", "Active"),
    ("CC1(c2ccccc2)CC(C)(C)N2C(=O)/C(=C3/SC(=O)NC3=O)c3cccc1c32 (centres undefined)", "Active"),
    ("CC1=NOC(=O)/C1=C\\c1ccc(-c2ccccc2)o1", "Active"),
    ("Cc1c(O)c(C(=O)CC(C)C)c2oc3c(C(=O)CC(C)C)c(O)c(C)c(O)c3c2c1O", "Active"),
]

molecule O=C1OC2(c3ccccc31)c1cc(I)c(O)c(I)c1Oc1c2cc(I)c(O)c1I , inhibition observed: Active

Reported inhibition for O=C1O[C@H](c2ccccc2)[C@H](c2ccccc2)N2[C@H]1[C@@H](C(=O)O)[C@]1(C(=O)Nc3ccc(C#CC4(O)CCCCCC4)cc31)[C@H]2c1ccc(OCCO)cc1 was Active

Reported inhibition ( CC(C)OC1(O)C(=O)c2ccccc2C(=O)C1(O)OC(C)C (centres undefined) ) = Active

* * *

System: Geobacillus stearothermophilus
Experiment: Inhibition of Bacillus stearothermophilus glucokinase
Activity calls are given as the source filed them. The calls are words filed in the database; no cut-off is given here.
OBSERVED PROPERTY: inhibition

# COMPOUND, inhibition
data = [
    ("O=C1C=C2N(c3ccccc3)CCOC2(O)c2ccccc21 (configuration not stated)", "Active"),
    ("O=C1NC(=O)N(c2ccccc2)C(=O)/C1=C/c1c2ccccc2cc2ccccc12", "Active"),
    ("CCOc1cccc(NC(=O)C2CC(=O)N(/N=C(\\C)c3ccc(Br)s3)C(=N)S2)c1 (configuration not stated)", "Active"),
    ("CC1(C)CCC2=C(O1)c1ccccc1C(=O)C2=O", "Active"),
    ("Cc1cccc(OCCOc2ccc(Br)cc2/C=C2\\SC(=S)NC2=O)c1", "Active"),
]

Recorded result, O=C1Nc2ccc(I)cc2/C1=C/c1cc(Br)c(O)c(Br)c1 , inhibition: Active

Notebook: CC(C)(C)C(=O)Nc1ccc2c(c1)C(=O)C(=O)c1ccccc1-2 , inhibition read as Active

// sample O=C1C(NS(=O)(=O)c2ccccc2)=C/C(=N\S(=O)(=O)c2ccc(F)cc2)c2ccccc21 , its inhibition was Active
